System: P. falciparum stage V gametocytes
Design: BacTiter-Glo ATP luminescence viability of purified stage V gametocytes in 384-well plates, per cent inhibition versus DMSO
settings: 48 h, 5 µM; inhibitor
In all, about 13,000 compounds went through this assay and about 3,200 (25%) showed an effect of 50% or more. This is one part of the list.
Label yes when % Inhibition is at or above 30%; otherwise label no.

Could you tell me if the measured % Inhibition of `Cc1oc(-c2ccc(Cl)cc2)cc1C(=O)NCCC1CCN(CCCCCNC(=O)/C=C/c2ccc(Cl)c(Cl)c2)CC1` reaches 30% or more?
yes

How about `CN(C(=O)C1(c2ccc(Cl)cc2)CC1)C1CCN(CCCCCNC(=O)/C=C/c2ccc(Cl)c(Cl)c2)CC1` ?
no

How about `Cc1[nH]c2ccccc2c(=O)c1-c1ccc(Cl)cc1` ?
no

How about `Cc1[nH]c2ccccc2c(=O)c1Br` ?
no

How about CCCCCC(=O)N1CCOC(CCN2CCC(c3ccccc3)CC2)(c2ccc(Cl)c(Cl)c2)C1 (centres unmarked) ?
no

How about `Cc1[nH]c2ccc(-c3ccc(N(C)C)cc3)cc2c(=O)c1Cl` ?
yes

How about Cc1cc(C)cc(OCC(O)CN(Cc2cc(Cl)cc(Cl)c2)C(=O)Nc2ccc(Cl)cc2)c1 (centres unmarked) ?
no

How about `O=C(Cc1ccc(Cl)cc1)Nc1cc(Cl)ccc1Cn1cnc(N2CCNCC2)cc1=O` ?
no

How about `CCCCN(C)CC#Cc1ccc(-c2ccc3[nH]c(C)c(Br)c(=O)c3c2)cn1` ?
no

How about `O=c1cc(NCCNCc2cccc(-c3ccccc3)c2)[nH]c2ccccc12` ?
no

How about `Cc1[nH]c(C)c(-c2ccc(C#Cc3ccc(F)cc3F)cc2)c(=O)c1Br` ?
yes

How about `CCN(CC)CCN(Cc1ccc(-c2ccc(C(F)(F)F)cc2)cc1)C(=O)Cn1nc(-c2ccc(C(F)(F)F)cc2)ccc1=O` ?
yes

How about `CCN(CC)CC#Cc1ccc2[nH]c(C)c(Cl)c(=O)c2c1` ?
no

How about `CS(=O)(=O)NCCCNCc1cccc(-c2cccc(-c3nc4ccc(F)cc4[nH]3)c2)c1` ?
no

How about `O=C(C=Cc1ccc(Cl)c(Cl)c1)NCCCCCN1CCC(CCNC(=O)c2cccc3ccccc23)CC1` ?
yes

How about `O=C1COc2ccc(S(=O)(=O)N3CCC[C@@H]3CCN3CCC(c4c[nH]c5cnccc45)CC3)cc2N1` ?
yes

How about `Fc1ccc2nc(-c3cccc(-c4ccc(CNCc5ccccc5)cc4)c3)[nH]c2c1` ?
no

How about `O=c1c2ccccc2[nH]c2cc(Cl)ccc12` ?
no

How about `CC(C)(C)c1nn(-c2ccccc2)c2[nH]c(=O)c(CNC3CCCC3)cc12` ?
no

How about `CCC(=O)c1ccc(-c2ccc(=O)n(CC(=O)N(CCN(CC)CC)Cc3ccc(-c4ccc(C(F)(F)F)cc4)cc3)n2)cc1` ?
yes

How about COc1ccc(C2CC(=O)C3=C(C2)NC(C)=C(C(=O)OC(C)C)C3c2ccccc2F)cc1OC (centres unmarked) ?
yes

How about `O=C(/C=C/c1ccc(Cl)c(Cl)c1)NCCCCCN1CCC(CCNC(=O)C2(c3ccc(Cl)cc3)CC2)CC1` ?
yes

How about `CC(=O)Nc1ccc2[nH]cc(C3CCN(CC4CCN(C(=O)/C=C/c5ccc(Cl)c(Cl)c5)CC4)CC3)c2c1` ?
no

How about `Cc1ccc2[nH]c3ccccc3c(=O)c2c1` ?
no

How about `Cc1[nH]c(C)c(-c2ccc(CCc3ccc(F)cc3F)cc2)c(=O)c1Cl` ?
yes

How about COc1ccc(Br)cc1C1Nc2ccc3ccccc3c2C2=C1C(=O)CC(c1ccccc1)C2 (centres unmarked) ?
yes

How about `CCC(N)(C#Cc1ccc(-c2c(C)[nH]c(C)c(Br)c2=O)cc1)CC` ?
yes

How about `Cn1cncc1-c1ccc2ncnc(Nc3ccc4c(cnn4Cc4ccccc4)c3)c2c1` ?
no

How about `Cc1[nH]c(C)c(-c2ccc(-c3ccc(F)cc3)cc2)c(=O)c1Cl` ?
no

How about `COc1ccc2ncc(C#N)c(CCN3CCC(NCc4ccc5c(c4)OCCO5)CC3)c2c1` ?
no

How about `O=S(=O)(c1ccc2cc[nH]c2c1)N1CCC[C@@H]1CCN1CCC(c2c[nH]c3cnccc23)CC1` ?
yes

###

For each entry below, report its % Inhibition value.
System: P. falciparum stage V gametocytes
Parameters: BacTiter-Glo ATP luminescence viability of purified stage V gametocytes in 384-well plates, per cent inhibition versus DMSO
settings: 48 h, 5 µM; inhibitor
Screen size: about 13,000 compounds; about 3,200 (25%) showed an effect of 50% or more. This is one part of the list.
Provide only the numeric value, understood in %.

Look up % Inhibition with P. falciparum stage V gametocytes for this molecule: `CCNc1cc(C(=O)N[C@@H](Cc2ccccc2)[C@H](O)CN[C@H](C)C(C)(C)C)cc(N2CCCCS2(=O)=O)c1`
4.242

How about `CC(C)N(Cc1ccc(-c2ccc(C(F)(F)F)cc2)cc1)C(=O)Cn1c(SCc2cccc(F)c2F)cc(=O)c2cc(CN3CCCCC3)ccc21` ?
103.1

How about `CCN(Cc1ccc(-c2ccc(C(F)(F)F)cc2)cc1)C(=O)Cn1c(SCc2cccc(F)c2F)cc(=O)c2cc(CN3CCCCC3)ccc21` ?
106.5

How about N#Cc1ccc2c(c1)CCN(CCC1CCC(NC(=O)c3cc4ccc(Cl)cc4[nH]3)CC1)C2 (stereo not shown) ?
-33.95

How about `CC(=O)Nc1ccc(C(=O)Nc2cccc(-c3ccc(-c4nc5ccccc5[nH]4)s3)c2)cn1` ?
24.61

How about `Cc1nc(N)nc(N)c1-c1cccc(Cl)c1` ?
13.21

How about `CC(=O)Nc1ccc(C(=O)Nc2cccc(-c3csc(-c4nc5ccccc5[nH]4)c3)c2)cn1` ?
77.44

###

For each entry below, report its % Inhibition value.
Test system: P. falciparum stage V gametocytes
Set-up: BacTiter-Glo ATP luminescence viability of purified stage V gametocytes in 384-well plates, per cent inhibition versus DMSO
settings: 48 h, 5 µM; inhibitor
In all, about 13,000 compounds went through this assay and about 3,200 (25%) showed an effect of 50% or more. The list shows a part of the results.
Provide only the numeric value, understood in %.

Quick one: % Inhibition of CN(C)CCOc1cc(NC(=O)c2ccc(-c3ccc(Cl)cc3Cl)cc2)ccc1-c1ccccc1 [TCMDC-138835] ?
-44.47

How about Cc1nc(-c2ccc(-c3ccc(C(=O)Nc4ccc(I)c(OCC5CCCN5C)c4)cc3)c(C)c2)no1 (stereo not shown) [TCMDC-139110] ?
-18.97

How about O=C(Nc1ccc(-c2ccccc2)c(OCCN2CCNCC2)c1)c1ccc(-c2ccc(Cl)cc2)cc1 [TCMDC-138818] ?
100.4

How about Cc1nc(-c2ccc(-c3ccc(C(=O)Nc4ccc(I)c(OCCN5CCCC5)c4)cc3)c(C)c2)no1 [TCMDC-139109] ?
57.83

###

Test system: P. falciparum stage V gametocytes
Design: BacTiter-Glo ATP luminescence viability of purified stage V gametocytes in 384-well plates, per cent inhibition versus DMSO
settings: 48 h, 5 µM; inhibitor
About 3,200 (25%) of roughly 13,000 compounds showed an effect of 50% or more. The list shows a part of the results.
quantity.name: % Inhibition (%)
Provide only the numeric value, understood in %.

Quick one: % Inhibition of CCC1CCCCN1S(=O)(=O)c1ccc(NC(=O)c2cc(C)on2)cc1 (centres unmarked) ?
-16.01

How about `Cc1cnc2cc3c(cc2c1N1CCN(C)CC1)NCC3` ?
-97.35

How about `O=C(Cc1cccnc1)N(Cc1ccc(-c2ccc(CNCc3cccnc3)cn2)cc1)C1CCN(Cc2ccccc2)CC1` ?
73.31

How about `COc1ccc(C(=O)CCC(=O)N(Cc2ccc(-c3ccc(CNCCc4ccc(S(C)(=O)=O)cc4)cn3)cc2)C2CCN(Cc3ccccc3)CC2)cc1F` ?
12.43

How about `COCCN1CCC(CNCC(C)(C)c2nc(-c3ccc(Cl)c(O)c3)c(-c3ccncc3)[nH]2)CC1` ?
-79.12

How about `CCOc1cc2ncnc(Nc3ccc(OCc4c(F)cccc4F)c(OC)c3)c2cc1OCC` ?
15.37

How about CSc1ccc(CN2CCC(CNC(=O)c3cc(-c4ccccc4F)cs3)C2)cc1.O=C(O)C(F)(F)F (centres unmarked) ?
78.38

How about O=C(NCC1CCN(Cc2ccc3c(c2)OCCO3)C1)c1cc(-c2ccccc2F)cs1.O=C(O)C(F)(F)F (centres unmarked) ?
14.42

###

Tested on: P. falciparum stage V gametocytes
Parameters: BacTiter-Glo ATP luminescence viability of purified stage V gametocytes in 384-well plates, per cent inhibition versus DMSO
settings: 48 h, 5 µM; inhibitor
Out of some 13,000 compounds screened, about 3,200 (25%) showed an effect of 50% or more. This is one part of the list.
For each entry below, report its % Inhibition value.
Provide only the numeric value, understood in %.

Quick one: % Inhibition of CCCCNCc1ccc(-c2nc(CN(CCCN3CCN(C)CC3)C(=O)Nc3cccc(Cl)c3)cs2)cc1 [TCMDC-141637] ?
88.1

How about OC(CNCc1ccccc1Oc1ccccc1)c1cc(Br)cs1 (stereo not shown) [TCMDC-141369] ?
34.47

How about CC(C)CCN(Cc1cncn1Cc1cccc(C(F)(F)F)c1)C(=O)c1cncc(-c2ccccc2)c1 [TCMDC-132458] ?
37.01

How about CCCCNCc1ccc(-c2nc(CN(CCCn3ccnc3)C(=O)NC3CC3c3ccccc3)cs2)cc1 (stereo not shown) [TCMDC-141638] ?
80.86

How about CCN(CC)CCN(Cc1ccc(-c2ccc(C(F)(F)F)cc2)cc1)C(=O)c1ccc(-c2ccc(C#N)cc2)cc1 [TCMDC-141556] ?
55.86

How about Cc1nc(Nc2ccc(F)cc2)nc(N2CCc3ccccc3[C@@H]2C)c1C [TCMDC-141073] ?
-42.65

How about O=C(/C=C/c1ccc(C(F)(F)F)cc1)NCCCCCN1CCN(C(=O)Nc2ccc(Cl)c(Cl)c2)CC1 [TCMDC-136094] ?
-8.361

How about CCc1ccc(NC(=O)N(CCCn2ccnc2)Cc2csc(-c3ccc(CNCc4ccccc4)cc3)n2)cc1 [TCMDC-141797] ?
5.722

How about O=C(C1COc2ccccc2O1)N(CCCn1ccnc1)Cc1csc(-c2ccc(CNCc3ccccc3)cc2)n1 (stereo not shown) [TCMDC-141813] ?
25.07

How about CCN(CC)C(=O)C(=O)c1c[nH]c2ccc(Cl)cc12 [TCMDC-131976] ?
21.68

How about CN1CCCN(Cc2ccc(-c3cccc(NC(=O)c4cccc(Cl)c4)c3)cc2)CC1 [TCMDC-132641] ?
27.52

How about CCCCC(CCCC)CN1C(=O)C(c2ccccc2)(c2ccccc2)N=C1N [TCMDC-136878] ?
-47.08

How about CCCN(Cc1nnc(-c2cccs2)o1)C(=O)C1COc2ccccc2O1 (stereo not shown) [TCMDC-125333] ?
18.28

How about CCOC(=O)c1ccc(NC(=O)Nc2ccc(-c3ccc(-c4nc5ccc(C(F)(F)F)cc5[nH]4)cc3)cc2)cc1 [TCMDC-133260] ?
23.97

How about O=C(Nc1ccc2ccccc2c1)N(CCCn1ccnc1)Cc1csc(-c2ccc(CNCc3ccccc3)cc2)n1 [TCMDC-141798] ?
15.32

How about COc1ccccc1-n1c(-c2ccc3ccccc3c2)csc1=NC(=O)c1ccccc1 [TCMDC-125668] ?
-1.763
